Values compiled from patent US8669271B2.

- subject-of-test: human GPR119 (Homo sapiens)
- Construct: expression vector for human GPR119 cDNA (Acc. No. NP_848566)
- Sequence (Q8TDV5 1-335): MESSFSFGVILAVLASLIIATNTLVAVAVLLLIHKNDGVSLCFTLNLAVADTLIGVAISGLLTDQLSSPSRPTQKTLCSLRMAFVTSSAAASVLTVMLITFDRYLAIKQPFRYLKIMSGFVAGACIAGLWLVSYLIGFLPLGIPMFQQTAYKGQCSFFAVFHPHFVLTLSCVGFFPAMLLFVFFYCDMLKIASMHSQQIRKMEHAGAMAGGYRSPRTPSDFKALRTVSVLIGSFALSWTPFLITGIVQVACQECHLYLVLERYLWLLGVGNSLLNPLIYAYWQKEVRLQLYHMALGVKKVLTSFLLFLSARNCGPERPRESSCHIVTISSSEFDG
- experiment-notes: AlphaScreen cAMP assay in Min-6/hGPR119 cells (activation of GPR119, intracellular cAMP)
- condition-details: MIN6 cells stably transfected with human GPR119; cAMP by AlphaScreen after 45 minutes incubation at room temperature
property: EC50 (nM)
Answers are plain numbers, in nM.

The cases that follow already have their EC50 on record.
Cc1cc(S(C)(=O)=O)ccc1-c1ccc2c(c1)CC(C1CCN(C(=O)OC(C)C)CC1)O2 (centres unmarked) = 121
CC(C)(C)OC(=O)N1CCC(C2Cc3cc(C4=CCN(S(C)(=O)=O)CC4)ccc3O2)CC1 (centres unmarked) = 7
CC(C)OC(=O)N1CCC(C2Cc3cc(-c4ccc(C(=O)N5CCC(O)C5)cc4)ccc3O2)CC1 (centres unmarked) = 95
CC(C)(C)OC(=O)N1CCC(C2Cc3cc(N4CCN(S(=O)(=O)C5CC5)CC4)ncc3O2)CC1 (centres unmarked) = 23
CC(C)OC(=O)N1CCC(C2Cc3cc(-c4ccc(S(C)(=O)=O)nc4)ccc3O2)CC1 (centres unmarked) = 71

Each compound below has a reported value. Please supply its EC50.
1. CC(C)OC(=O)N1CCC(C2Cc3cc(-c4ccc(CN(C)S(C)(=O)=O)cc4)ccc3O2)CC1 (centres unmarked)
2. CC(C)OC(=O)N1CCC(C2Cc3cc(-c4ccncc4F)ccc3O2)CC1 (centres unmarked)
3. CCCS(=O)(=O)N1CCN(c2cc3c(cn2)OC(C2CCN(C(=O)OC(C)(C)C)CC2)C3)CC1 (centres unmarked)

[out]
[288, 167, 9]

* * *

- subject-of-test: human GPR119 (Homo sapiens)
- Construct: expression vector for human GPR119 cDNA (Acc. No. NP_848566)
- experiment-notes: AlphaScreen cAMP assay in Min-6/hGPR119 cells (activation of GPR119, intracellular cAMP)
- condition-details: MIN6 cells stably transfected with human GPR119; cAMP by AlphaScreen after 45 minutes incubation at room temperature
So I've got a bunch of molecules here, and I need their EC50 values.

CC(O)CCNC(=O)Cc1ccc(-c2ccc3c(c2)CC(C2CCN(C(=O)OC(C)C)CC2)O3)cc1 (centres unmarked) [Example 126] = 168 nM
CC(C)(C)OC(=O)N1CCC(C2Cc3cc(-n4ccnc4)ncc3O2)CC1 (centres unmarked) [Example 69] = 162 nM
COCCN(C)C(=O)Cc1ccc(-c2ccc3c(c2)CC(C2CCN(C(=O)OC(C)C)CC2)O3)cc1 (centres unmarked) [Example 124] = 70 nM
CC(C)(C)OC(=O)N1CCC(C2Cc3cc(-c4cnco4)ncc3O2)CC1 (centres unmarked) [Example 39] = 152 nM
Cc1cc(-c2ccc3c(c2)CC(C2CCN(C(=O)OC(C)C)CC2)O3)cnc1C#N (centres unmarked) [Example 9] = 432 nM

Each molecule below has a reported value. Please supply its EC50.
1. CC(C)OC(=O)N1CCC(C2Cc3cc(-c4ccc(CC(=O)N5CCOCC5)cc4)ccc3O2)CC1 (centres unmarked) [Example 150]
2. CC(C)(C)OC(=O)N1CCC(C2Cc3cc(C4=CCN(S(C)(=O)=O)CC4)ncc3O2)CC1 (centres unmarked) [Example 92]

[out]
1. 62 nM
2. 12 nM

[in] Quick one: EC50 of CC(C)(C)OC(=O)N1CCC(C2Cc3cc(-c4ccncc4F)ncc3O2)CC1 (centres unmarked) [Example 51] ?
[out] 10 nM
